Data origin: patent US9944618B2

Assayed Target: human norepinephrine transporter (Homo sapiens (Human), UniProt P23975)
Sequence (P23975 whole entry): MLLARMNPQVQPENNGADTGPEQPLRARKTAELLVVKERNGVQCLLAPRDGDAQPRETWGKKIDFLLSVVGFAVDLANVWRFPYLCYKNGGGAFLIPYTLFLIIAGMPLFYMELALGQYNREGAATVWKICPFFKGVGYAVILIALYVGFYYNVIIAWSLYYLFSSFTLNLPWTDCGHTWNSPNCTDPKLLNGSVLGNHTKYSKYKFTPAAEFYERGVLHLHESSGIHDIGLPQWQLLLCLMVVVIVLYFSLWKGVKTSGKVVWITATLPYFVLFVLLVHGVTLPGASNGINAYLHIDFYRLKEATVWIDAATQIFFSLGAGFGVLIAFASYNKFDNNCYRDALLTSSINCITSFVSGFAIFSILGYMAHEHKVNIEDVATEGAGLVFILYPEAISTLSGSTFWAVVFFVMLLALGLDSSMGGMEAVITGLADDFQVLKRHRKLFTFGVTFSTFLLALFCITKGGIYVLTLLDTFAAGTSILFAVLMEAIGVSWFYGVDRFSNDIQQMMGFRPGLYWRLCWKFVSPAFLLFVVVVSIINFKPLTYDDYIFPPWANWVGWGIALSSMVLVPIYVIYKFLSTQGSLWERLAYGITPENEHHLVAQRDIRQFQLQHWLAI
Procedure Summary: Human NET (norepinephrine transporter) uptake assay
Format: cell-based
Measurement Conditions: read-out: hNET Ki
For each entry below, report its pKi value.
To interpret pKi, take it as minus log10 of a concentration measured in moles per litre.

# input Which pKi is listed for CNCC(Cc1ccccc1OC)c1ccc2ccccc2c1 (stereo not drawn) [Compound 132] ?
# output 7.99

# input Which pKi is listed for CNC[C@@H](c1ccc(Br)c(Cl)c1)[C@H](O)c1ccccc1 (racemic) ?
# output 8.20

# input Which pKi is listed for CNC[C@H](c1ccc2ccccc2c1)[C@H](O[C@H](C)C(=O)N1CCCC1)c1ccccc1 ?
# output 7.83

# input Which pKi is listed for CNCC(Cc1ccccc1O)c1ccc2ccccc2c1 (stereo not drawn) [Compound 69] ?
# output 8.05

# input Which pKi is listed for CNC[C@@H](c1ccc2ccccc2c1)[C@H](O)c1cc(F)cc(F)c1 ?
# output 7.86

# input Which pKi is listed for CN(C)C[C@H](c1ccc2ccccc2c1)[C@H](N)c1ccccc1 ?
# output 7.82

* * *

Assayed Target: CYP2D6 (Homo sapiens (Human))
Sequence (P10635 whole entry): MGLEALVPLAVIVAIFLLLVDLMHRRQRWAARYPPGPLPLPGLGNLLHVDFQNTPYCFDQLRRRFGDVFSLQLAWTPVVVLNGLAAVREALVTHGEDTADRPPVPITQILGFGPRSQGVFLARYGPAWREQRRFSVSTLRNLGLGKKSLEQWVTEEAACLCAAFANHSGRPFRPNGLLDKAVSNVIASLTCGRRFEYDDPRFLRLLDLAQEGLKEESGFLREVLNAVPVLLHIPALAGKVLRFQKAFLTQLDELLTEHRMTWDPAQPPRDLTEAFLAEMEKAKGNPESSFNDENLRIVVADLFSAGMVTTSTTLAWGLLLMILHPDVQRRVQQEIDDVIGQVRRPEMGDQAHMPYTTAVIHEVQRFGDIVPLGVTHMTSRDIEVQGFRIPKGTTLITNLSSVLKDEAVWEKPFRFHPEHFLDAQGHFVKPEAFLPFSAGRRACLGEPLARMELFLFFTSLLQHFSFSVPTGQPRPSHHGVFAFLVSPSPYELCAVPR
Procedure Summary: Cytochrome P450 inhibition assay, recombinant CYP2D6 (MAMC substrate)
Format: in vitro ADME
Measurement Conditions: recombinant enzyme
Test Readout: IC50 (nM)
The reply should be a number in nM, with the unit left off.

# input Which IC50 is listed for CNCC(Cc1ccccc1O)c1ccc2ccccc2c1 (stereo not drawn) [Compound 52] ?
# output 900

# input Which IC50 is listed for CNC[C@H](c1ccc(Cl)c(Cl)c1)[C@@H](O)c1cccc(SC)c1 [Compound 163] ?
# output 730

# input Which IC50 is listed for CNC[C@H](c1ccc(OC)c(C)c1)[C@H](O)c1cccnc1 [Compound 55] ?
# output 810

# input Which IC50 is listed for O[C@@H](c1ccccc1)[C@@H](CNCC(F)(F)F)c1ccc2ccccc2c1 (single isomer, unassigned) [Compound 130] ?
# output 3700

# input Which IC50 is listed for NC[C@@H](c1ccc2ccccc2c1)C(O)c1ccncc1Cl (stereo partly drawn) [Compound 118] ?
# output 3900

# input Which IC50 is listed for c1ccc([C@@H]2OCCNC[C@H]2c2ccc3ccccc3c2)cc1 [Compound 64] ?
# output 5100

# input Which IC50 is listed for CNC[C@H](c1ccc(Cl)c(Cl)c1)[C@H](O)c1ccncc1 (racemic) [Compound 155] ?
# output 1400

# input Which IC50 is listed for CNC[C@@H](c1ccc(Cl)c(Cl)c1)[C@@H](O)c1ccsc1 [Compound 153] ?
# output 1400

# input Which IC50 is listed for CNC[C@H](c1ccc(Cl)c(Cl)c1)[C@H](O)c1ccccc1SC [Compound 156] ?
# output 170

# input Which IC50 is listed for CN(C)CC(C)(c1ccc2ccccc2c1)C(O)c1ccccc1 (stereo not drawn) [Compound 86] ?
# output 290

# input Which IC50 is listed for CNC[C@@H](c1ccc2ccccc2c1)[C@H](O)c1cc(F)cc(F)c1 [Compound 142] ?
# output 660

# input Which IC50 is listed for CNCC(CCc1ccccc1)[C@H](O)c1ccccc1 (stereo partly drawn) [Compound 66] ?
# output 260

* * *

Assayed Target: human serotonin transporter (Homo sapiens (Human), UniProt P31645)
Sequence (P31645 whole entry): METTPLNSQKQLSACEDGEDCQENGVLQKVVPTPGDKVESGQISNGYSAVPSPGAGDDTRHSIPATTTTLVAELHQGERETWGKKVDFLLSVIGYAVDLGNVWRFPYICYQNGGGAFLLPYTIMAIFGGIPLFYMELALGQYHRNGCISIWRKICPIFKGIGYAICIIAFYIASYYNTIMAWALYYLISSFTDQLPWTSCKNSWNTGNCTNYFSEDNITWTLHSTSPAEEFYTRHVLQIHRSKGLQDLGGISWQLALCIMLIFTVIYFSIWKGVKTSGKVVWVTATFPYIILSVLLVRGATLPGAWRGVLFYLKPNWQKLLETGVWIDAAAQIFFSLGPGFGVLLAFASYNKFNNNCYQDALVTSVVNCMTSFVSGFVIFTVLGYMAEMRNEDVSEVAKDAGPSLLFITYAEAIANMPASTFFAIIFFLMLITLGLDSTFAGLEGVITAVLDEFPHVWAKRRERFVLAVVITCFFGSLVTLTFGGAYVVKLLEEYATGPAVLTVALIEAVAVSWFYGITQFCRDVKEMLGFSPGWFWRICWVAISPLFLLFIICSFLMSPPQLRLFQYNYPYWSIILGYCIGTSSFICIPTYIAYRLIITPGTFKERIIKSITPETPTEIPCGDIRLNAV
Procedure Summary: Human SERT (serotonin transporter) uptake assay
Format: cell-based
Measurement Conditions: read-out: hSERT Ki
Test Readout: pKi
To interpret pKi, take it as minus log10 of a concentration measured in moles per litre.

# input Which pKi is listed for CNCCC(Oc1ccccc1OC)c1ccccc1 (stereo not drawn) ?
# output 7.26

# input Which pKi is listed for CNC[C@H](c1ccc2ccccc2c1)[C@H](F)c1ccccc1 ?
# output 8.24

# input Which pKi is listed for CNCC(Cc1ccccc1OC)c1ccc2ccccc2c1 (stereo not drawn) [Compound 132] ?
# output 7.91
